Below: a set of entries, each annotated with reported EC50.
# measured_target: human B7-H3 (human) (UniProt Q5ZPR3)
# experimental_protocol: flow cytometry (FACS) on CHO-K1/B7-H3 cells
observable: EC50 (nM)

binder	measurement_unit	observed
47C7E3 (antibody, V domains shown) VH: QIQLVQSGPELKKPGETVKISCKASGYTFTNFGMNWVKQAPGKGLKWMGWIYTPSGVPIYADDFKGRFAVSLETSASTAYLQINNLKNEDTATYFCARDDGYYYTMDYWGQGTSVTVSS VL: DDVMTQTPLSLPVSLGDHASISCRSSQSLVHSNGDTYLHWYLQKPGQSPKLLIYKVSNRFSGVPDRFSGSGSGTDFTLKISRVEAEDLGVYFCSQSTHVPWTFGGGTKLEIK	nM	0.87
37D11F5B8 (antibody, V domains shown) VH: QIQLVQSGPELKKPGETVKISCKASGDTFRNNGMNWVKQAPGKGLKWMGWINPYSGVPTYADDFKGRFAFSLETSASTAFLQINNLKNEDTATYFCARDDGYHYTMDFWGLGTSVTVSS VL: DVVMTQTPLSLPVSLGDQASISCRSSQSLVHSNGITYLHWYLQKPGQSPKLLTYKVSHRFSGVPDRFSGSGSGTDFTLKISRVEAEDLGVYFCSQSTHVPWTFGGGTKLEIK	nM	0.909
